# Tested on: HL-60
# Method Description: NCI tumour cell line growth inhibition, 48 h
Calls of active or inactive are those of the source. Rule as the data show it: active = GI50 up to about 1.1 µM and inactive = higher.
Hi! Could you answer with just one of these? true (active), false (inactive)

Answered cases to consult:
| Compound | Class Label |
| --- | --- |
| S=c1scc(-c2ccc(Cl)cc2)n1OC1CCCC1 | false |
| CC1=C2[C@@H](c3ccccc3)C3C=CC2(c2ccccc23)N(C(=O)Nc2cccc3ccccc23)C1=O (stereo partly specified) | false |
| CCOC(=O)C(C)NC(=O)NC12CC3CC(CC(F)(C3)C1)C2 (stereo unspecified) | false |
| O=C(CC1(O)C(=O)Nc2c(Cl)cc(Cl)cc21)c1ccc(Br)cc1 (stereo unspecified) | false |
| CCC/N=C/c1cc(Cc2ccc(O)c(/C=N/CCC)c2)ccc1O | false |

q: # lookup: test call for CCCCCCC(N)(CCCCCC)C(=O)Nn1c(C)ccc1C
a: false

---

# Test system: OVCAR-8
# Method Description: NCI tumour cell line growth inhibition, 48 h
Active and inactive are the calls of the source. Rule as the data show it: active = GI50 up to about 1.1 µM and inactive = higher.
The compounds listed here are annotated with their GI50.

// solved cases for GI50 follow
| Compound | GI50 |
| --- | --- |
| COc1ccc(-c2cc3cc(Cl)cc(Cl)c3oc2=O)cc1OC | 65.8 µM (inactive) |
| CCOC(=O)c1nc2ccc(C(F)(F)F)cc2nc1NCc1cc(OC)c(OC)c(OC)c1 | > 100 µM (inactive) |

Lookup result for O=C1O/C(=C\c2ccc(O)c(Br)c2)C(c2ccc(O)cc2)=C1Cl ; measured GI50: 42.5 µM (inactive)

Lookup result for COc1ccc2c3c1OC1C(=O)C=CC4(CC2)N(C)CCC314 (stereo not given) ; measured GI50: 22.5 µM (inactive)

---

# Test system: HOP-92
# Method Description: NCI tumour cell line growth inhibition, 48 h
The source made the active and inactive calls. Cut-off read from the data, not from the text of the source: active = GI50 up to about 1.1 µM and inactive = higher.
Measurement Type: GI50

| Compound | Assayed System | GI50 |
| --- | --- | --- |
| C/C(=N\N=C(\N)OB(F)F)c1ccccn1 | HOP-92 | 12.7 µM (inactive) |
| N#CC(/C(CCC(=O)Nc1ccc(Cl)cc1)=N/NC(=O)c1cc2ccccc2cc1O)c1ccccc1 (stereo not drawn) | HOP-92 | 40.9 µM (inactive) |

Consider the record given below.
Entry CC[C@H](C)[C@H]1NC(=O)[C@@H](NC(=O)[C@@H](CC(C)C)N(C)C(=O)C2CCCN2C(=O)[C@H](C)O)[C@@H](C)OC(=O)[C@H](Cc2ccc(OC)cc2)N(C)C(=O)[C@@H]2CCCN2C(=O)[C@H](CCCCNC(=O)OCc2ccccc2)NC(=O)[C@H](C)C(=O)[C@H](C(C)C)OC(=O)C[C@@H]1O (stereo partly drawn) : GI50 on HOP-92 = 3.49 µM (inactive)

---

# System: LXFL 529
# Method Description: NCI tumour cell line growth inhibition, 48 h
Calls of active or inactive are those of the source. Cut-off read from the data, not from the text of the source: active = GI50 up to about 1.1 µM and inactive = higher.
The compounds listed here are annotated with their GI50.

// solved cases for GI50 follow
| Compound | Value Reported |
| --- | --- |
| CC/C(C)=C1\CCC(CN(C)C)C1=O (stereo unspecified) | 16.3 µM (inactive) |
| CN(C)C(=S)/N=c1\ssc(=S)n1C1CCCCC1 | 13.2 µM (inactive) |
| O=c1[nH]c(=O)n([C@H]2C[C@@H](CO)[C@@H](O)C2)cc1I | > 100 µM (inactive) |
| CCc1cccc(C(C)C)c1NC(=O)C(=O)C(C(=O)C(=O)OC)c1nc2ccccc2nc1O (stereo unspecified) | > 100 µM (inactive) |
| CCOC(=O)CC(C)C1(C=O)CCCCC1=O (stereo unspecified) | > 100 µM (inactive) |
| CCOC(=O)N1CCN(P(=O)(Nc2ccc3[nH]c(NC(=O)OC)nc3c2)Oc2ccccc2)CC1 (stereo unspecified) | > 100 µM (inactive) |
| CC(/C=C/C=C\C=C\C=C(/C)C(=O)NC(C)CO)=C\C(C)C(O)/C(C)=C/C(C)CCc1ccccc1 (stereo unspecified) | 3.18 µM (inactive) |
| N#CN=C(NCCO)NCCO | > 100 µM (inactive) |

Entry CCOC(=O)C(C)NC(=O)NC12CC3CC(CC(F)(C3)C1)C2 (stereo unspecified) : GI50 on LXFL 529 = > 100 µM (inactive)

Entry N#CC(C#N)=C1NC(=O)C(c2ccccc2)C(=O)N1 (stereo unspecified) : GI50 on LXFL 529 = > 100 µM (inactive)

Entry COC(=O)C1C(=O)NC2(C)CC1c1ccccc1O2 (stereo unspecified) : GI50 on LXFL 529 = > 100 µM (inactive)

Entry N#C/C(=C\c1cccc(Cl)c1Cl)c1ccccc1 : GI50 on LXFL 529 = 54 µM (inactive)

Entry O=C(CC1(O)C(=O)Nc2ccc(Br)cc21)c1ccc(Cl)cc1 (stereo unspecified) : GI50 on LXFL 529 = > 100 µM (inactive)
